# H1.0 immunofluorescence intensity per record follows
system: TDF; experiment: H1.0 immunofluorescence intensity relative to DMSO (% of DMSO); higher = stronger H1.0 induction, active = 120 or more; conditions: concentration: 10 µM; 24 h;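 also: TDF is a line of transformed human dermal fibroblasts of mesenchymal origin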
# output: bare number, no unit

Below, each entry is followed by its recorded H1.0 immunofluorescence intensity result.
Here CC(C)OC(=O)C(C)(C)Oc1ccc(C(=O)c2ccc(Cl)cc2)cc1 [Fenofibrate] was tested on TDF, and its H1.0 immunofluorescence intensity came to 95

Response field H1.0 immunofluorescence intensity (TDF) for item `CCCCN1CCC(COC(=O)c2cc(Cl)c(N)c3c2OCCO3)CC1.Cl` : 97.7

For the compound CCCCCC=CCC(O)C=CC=CC=CC(O)CCCC(=O)O [5(S),12(R)-DIHETE all trans] , the measured H1.0 immunofluorescence intensity on TDF was 99.7

Given the compound CC(=O)NCCc1ccc(O)c(O)c1 [N-Acetyldopamine monohydrate] and test system TDF, the measured H1.0 immunofluorescence intensity is 96.7

Here is another compound to look at.
Record COc1cc(NS(C)(=O)=O)ccc1Nc1c2ccccc2nc2ccccc12.Cl [Amsacrine hydrochloride] ; system TDF; H1.0 immunofluorescence intensity = 152

* * *

Recorded H1.0 immunofluorescence intensity for the following compounds
tested on: HCC1569; test: H1.0 immunofluorescence intensity relative to DMSO (% of DMSO); higher = stronger H1.0 induction, active = 140 or more; conditions: concentration: 10 µM; 24 h
Lab note: jot down the number only; don't add units.

Measured H1.0 immunofluorescence intensity of CCCCc1oc2ccccc2c1C(=O)c1cc(I)c(OCCN(CC)CC)c(I)c1.Cl [Amiodarone hydrochloride] : 101

Notebook: `CC(=O)c1ccc(NC2=C(Cl)C(=O)c3ccccc3C2=O)cc1` , H1.0 immunofluorescence intensity read as 178

Kindly note the recorded H1.0 immunofluorescence intensity for `O=C(O)c1ccc(O)c(O)c1` , which is 91.3

Recorded result, `O=c1onc2cnc3ccccc3n12` , H1.0 immunofluorescence intensity: 106

Lookup result for Cl.Cl.O=C(O)COCCN1CCN(C(c2ccccc2)c2ccc(Cl)cc2)CC1 (stereo not drawn) [Cetirizine 2HCl] ; measured H1.0 immunofluorescence intensity: 104

Others:
Reported H1.0 immunofluorescence intensity of `N[C@H](CCC(=O)NCS(=O)(=O)O)C(=O)O` : 93.6

The compound listed as Cl.NC1(C(=O)O)CC1 [1-Aminocyclopropanecarboxylic acid hydrochloride] shows H1.0 immunofluorescence intensity equal to 100

Record CC(=O)NC1C(N=C(N)N)C=C(C(=O)O)OC1C(O)C(O)CO (stereo not drawn) , field H1.0 immunofluorescence intensity: 99

The value of H1.0 immunofluorescence intensity measured for the compound O=C(NO)c1cccc(C(=O)NCCc2ccccc2)c1 [N1-hydroxy-N3-phenethylisophthalamide] turned out to be 101

The recorded H1.0 immunofluorescence intensity for entry Cl.NC12CC3CC(CC(C3)C1)C2 [Amantadine.HCl] equals 99

Reported H1.0 immunofluorescence intensity ( CCCCCCC=CCCCCCCCCC(=O)O [10(E)-Heptadecenoic acid] ) = 98.8

* * *

system: HCC1569; experiment: H1.0 immunofluorescence intensity relative to DMSO (% of DMSO); higher = stronger H1.0 induction, active = 140 or more; details: concentration: 10 µM; 24 h
Use one of these outcomes when replying: active, inactive

Examples with answers:
Query string: Record request — test call for C=CCc1ccccc1OCC(O)CNC(C)C.Cl (stereo unspecified) [Alprenolol hydrochloride]
Result string: inactive

Query string: Please state the recorded outcome for this compound: C#C[C@@]1(OC(C)=O)CC[C@H]2[C@@H]3CCC4=CC(=O)CC[C@@H]4[C@H]3CC[C@@]21C [(17beta)-17-ethynyl-3-oxoestr-4-en-17-yl acetate]
Result string: inactive

Query string: What classification did O=c1c(-c2ccc(O)cc2)coc2cc(OC3OC(CO)C(O)C(O)C3O)ccc12 (stereo unspecified) [Daidzin] end up with in this test?
Result string: inactive

Query string: Tell me the assay call for CC1c2cccc(O)c2C(O)=C2C(=O)C3(O)C(O)=C(C(N)=O)C(=O)C(N(C)C)C3C(O)C21.Cl (stereo unspecified) [Doxycycline hydrochloride] please.
Result string: inactive

Query string: In this assay, the call recorded for `Clc1ccc(N/N=C(\c2ccccc2)c2ccccn2)nc1` was what?
Result string: inactive

Query string: For Cc1ccc(S(=O)(=O)N2c3ccccc3Oc3ccccc32)cc1 [10-[(4-methylphenyl)sulfonyl]-10H-phenoxazine] , which call appears in the assay record?
Result string: active

Query string: What outcome does the record of this test show for `CN1CCN(c2ccc3c(c2)NC(=C2C(=O)N=c4cccc(F)c4=C2N)N3)CC1` ?
Result string: active

Query string: I would be grateful if you could indicate the recorded call for Cc1cc(C)c(NC(=O)CC(CC(=O)[O-])c2cccc3ccccc23)c(C(=O)N2CCC3(CCCC3)CC2)c1.[Na+] (stereo unspecified) .
Result string: inactive

Query string: Please indicate how the test categorized CC12C=CC(=O)C=C1CCC1C2C(O)CC2(C)C1CCC2(O)C(=O)CO (stereo unspecified) [Prednisolone] .
Result string: inactive

Query string: Please let me know the test result on file for COc1ccc(-c2cc3c(C)nc(N)nc3n(C3CCC(OCCO)CC3)c2=O)cn1 (stereo unspecified) .
Result string: active

Next:
Query string: Kindly provide the recorded test outcome for the following compound: `COc1cc(OC)c(C=C2C(=O)Nc3ccccc32)c(OC)c1`
Result string: active

Query string: Can you look up the reported call for COc1cccc(OC)c1OCCNCC1CSc2ccccc2O1.Cl (stereo unspecified) [Benoxathian hydrochloride] for me?
Result string: inactive

Query string: In this assay, the call recorded for CN(C)C(=S)NN=C(c1ccccn1)c1ccccn1 [(Z)-di(2-pyridinyl)methanone N,N-dimethylthiosemicarbazone] was what?
Result string: inactive

Query string: Hello, I am checking results. What call was entered for CC(C)NCC(O)COc1ccc(CC(N)=O)cc1 (racemic) ?
Result string: inactive

Query string: Outcome logged for COC1CC2CCC(C)C(O)(O2)C(=O)C(=O)N2CCCCC2C(=O)OC(C(C)CC2CCC(O)C(OC)C2)CC(=O)C(C)C=C(C)C(O)C(OC)C(=O)C(C)CC(C)C=CC=CC=C1C (stereo unspecified) [Rapamycin] in this assay:
Result string: inactive

Query string: What did the test return for C=CC(N)CCC(=O)O (racemic) ?
Result string: inactive

* * *

system: TDF; experiment: H1.0 immunofluorescence intensity relative to DMSO (% of DMSO); higher = stronger H1.0 induction, active = 120 or more; settings: concentration: 10 µM; 24 h
Can you answer with just one of these options? active, inactive

Previously resolved entries follow.
Query string: Answer briefly: the call reported for N#Cc1c(-c2ccccc2)cc(-c2cc(Br)ccc2O)[nH]c1=O [PIM1 Kinase Inhibitor II] in this assay.
Result string: inactive

Query string: Per the records of this test, what outcome belongs to O=C(Nc1ccccc1C(=O)Nc1ccc(CCO)cc1)c1ccc([N+](=O)[O-])cc1 [N-(4-(2-hydroxyethyl)phenyl)-2-(4-nitrobenzamido)benzamide] ?
Result string: inactive

Query string: I would be grateful if you could indicate the recorded call for O=C1OC(=CBr)CCC1c1cccc2ccccc12 (centres undefined) [Bromoenol lactone] .
Result string: inactive

Now, please, on to the next molecule.
Query string: Just curious, what result did O=C(CCl)c1c[nH]c2ccccc12 [2-chloro-1-(1H-indol-3-yl)ethanone] get here?
Result string: active

* * *

tested on: HCC1569; assay: H1.0 immunofluorescence intensity relative to DMSO (% of DMSO); higher = stronger H1.0 induction, active = 140 or more; settings: concentration: 10 µM; 24 h
The categories you may choose from are 1.0 = active, 0.0 = inactive

Consider the following illustrative entries.
Query string: Recorded call for CC[N+](CC)(CC)CC(=O)Nc1c(C)cccc1C.[Br-] [Lidocaine N-ethyl bromide quaternary salt] ?
Result string: 0.0

Query string: Please share the test call associated with CC(C)(C)NCC(O)COc1cccc2[nH]c(=O)[nH]c12.Cl (racemic) .
Result string: 0.0

Query string: Per the records of this test, what outcome belongs to NC1CCN(c2c(F)cc3c(=O)c(C(=O)O)cn(C4CC4)c3c2Cl)C1 (stereo not drawn) [Clinafloxacin] ?
Result string: 0.0

Query string: Identify the outcome logged in this assay for the molecule shown: CSc1nc(N)c2ncn(C3OC(COP(=O)([O-])OP(=O)([O-])[O-])C(O)C3O)c2n1.[Na+].[Na+].[Na+] (stereo not drawn) [2-Methylthioadenosine diphosphate trisodium]
Result string: 0.0

***
Query string: Look up the recorded call for `Oc1ccc(-c2c(-c3ccccc3)nn3c(C(F)(F)F)cc(C(F)(F)F)nc23)cc1` in this test.
Result string: 1.0

Query string: Test call for this molecule, please: O=c1c(O)c(-c2ccc(O)cc2)oc2cc(O)cc(O)c12 [Kaempferol]
Result string: 0.0

Query string: Per the records of this test, what outcome belongs to CC12CCC(=O)C=C1CCC1C2C(O)CC2(C)C(C(=O)CO)CCC12 (stereo not drawn) [Corticosterone] ?
Result string: 0.0

Query string: Tell me the recorded outcome of this test for `CCC(=O)N1CCN(C(=O)c2ccccc2)CC1` .
Result string: 0.0

Query string: # lookup: test call for `N#CCNC(=O)c1ccc(-c2ccnc(Nc3ccc(N4CCOCC4)cc3)n2)cc1`
Result string: 0.0

Query string: // outcome(item) with item = Cc1ccc(C(=CCN2CCCC2)c2ccccn2)cc1.Cl [Trans-triprolidine.HCl]
Result string: 0.0

Query string: Which outcome did this test record for the molecule CC(NCCc1ccc(O)cc1)C(O)c1ccc(O)cc1.Cl (stereo not drawn) [Ritodrine hydrochloride] ?
Result string: 0.0

Query string: Give the logged outcome of this assay for the following molecule: CCCN(CCc1ccccc1)C1CCc2c(O)cccc2C1 (stereo not drawn) [2-(N-Phenethyl-N-propyl)amino-5-hydroxytetralin]
Result string: 0.0

Query string: What did the test return for CN1CCC(=C2c3ccccc3C=Cc3ccccc32)CC1.Cl [Cyproheptadine hydrochloride] ?
Result string: 0.0

Query string: Dear all, I need the recorded test outcome for C=C(C)C1CC=C(C(=O)O)CC1 (stereo not drawn) [Perillic acid] , thank you.
Result string: 0.0

Query string: Short answer needed: outcome of this test for CCCCCCCCCCCC=CCCCCCC(=O)O [7(Z)-Nonadecenoic acid] ?
Result string: 0.0

Query string: What did the test return for Nc1nc2ccc(Cl)cc2n2c(-c3ccccc3)nnc12 [8-chloro-1-phenyl[1,2,4]triazolo[4,3-a]quinoxalin-4-ylamine] ?
Result string: 0.0

Query string: Hi, sorry to bother you, what did the test record for CCN(CC)CCNC(=O)c1ccc(NC(C)=O)cc1.Cl [N-Acetylprocainamide hydrochloride] ?
Result string: 0.0

Query string: Status in this test for `CCCCCCCCCCCCCCCCn1cc[n+](Cc2ccccc2)c1C.[I-]` ?
Result string: 0.0

Query string: Write down the call the test reported for this molecule. Item: CC(C[N+](C)(C)C)OC(N)=O.[Cl-] (stereo not drawn) [Bethanechol chloride]
Result string: 0.0
